Molecular target: RPS6KA1 KD2 (human) (UniProt Q15418)
Sequence (Q15418 whole entry, looked up): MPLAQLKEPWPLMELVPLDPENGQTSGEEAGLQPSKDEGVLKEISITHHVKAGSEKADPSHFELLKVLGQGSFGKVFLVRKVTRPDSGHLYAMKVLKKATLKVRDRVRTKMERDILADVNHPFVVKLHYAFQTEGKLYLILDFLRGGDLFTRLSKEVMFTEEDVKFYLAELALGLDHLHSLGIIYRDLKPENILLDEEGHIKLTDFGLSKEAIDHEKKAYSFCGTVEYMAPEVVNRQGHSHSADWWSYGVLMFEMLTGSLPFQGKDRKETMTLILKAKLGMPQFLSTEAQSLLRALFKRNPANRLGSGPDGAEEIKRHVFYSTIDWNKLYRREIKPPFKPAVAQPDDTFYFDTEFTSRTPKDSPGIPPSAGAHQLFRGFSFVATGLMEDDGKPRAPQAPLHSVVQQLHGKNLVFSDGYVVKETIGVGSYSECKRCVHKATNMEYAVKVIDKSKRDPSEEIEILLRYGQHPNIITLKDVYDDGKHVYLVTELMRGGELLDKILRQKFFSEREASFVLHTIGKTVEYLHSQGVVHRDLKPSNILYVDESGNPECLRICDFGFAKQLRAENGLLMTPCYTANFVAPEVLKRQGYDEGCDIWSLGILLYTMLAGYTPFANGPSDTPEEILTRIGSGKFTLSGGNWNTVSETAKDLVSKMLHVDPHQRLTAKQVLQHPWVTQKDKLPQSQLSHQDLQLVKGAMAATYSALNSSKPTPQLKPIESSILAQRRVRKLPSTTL
Assay: KINOMEscan competition binding
Conditions: compound 10.0 µM
measurement_kind: kinase still bound, per cent of control (%)
Write down the numeric answer in % and omit the unit.

{"columns": ["smiles_repr", "unit_symbol", "kinase still bound, per cent of control"],
 "data": [
  ["COc1cc2ncn(-c3cc(OCc4ccccc4C(F)(F)F)c(C(N)=O)s3)c2cc1OC", "%", 63],
  ["COc1cc(C(=O)N2CCC(N3CCN(C)CC3)CC2)ccc1Nc1ncc2c(n1)N(C)c1ccccc1C(=O)N2C", "%", 10],
  ["CS(=O)(=O)N1CCN(Cc2cc3nc(-c4cccc5[nH]ncc45)nc(N4CCOCC4)c3s2)CC1", "%", 100],
  ["COc1cc2ncnc(-n3nc(-c4ccccn4)nc3N)c2cc1OC", "%", 14]
]}

State its kinase still bound, per cent of control on RPS6KA1 KD2 (human) (UniProt Q15418): CNC(=O)c1ccc(Nc2cc(Nc3ccccc3S(=O)(=O)C(C)C)c3cc[nH]c3n2)nc1
100

* * *

Biological target: CSNK1A1 (human) (UniProt P48729)
Sequence (P48729 whole entry, looked up): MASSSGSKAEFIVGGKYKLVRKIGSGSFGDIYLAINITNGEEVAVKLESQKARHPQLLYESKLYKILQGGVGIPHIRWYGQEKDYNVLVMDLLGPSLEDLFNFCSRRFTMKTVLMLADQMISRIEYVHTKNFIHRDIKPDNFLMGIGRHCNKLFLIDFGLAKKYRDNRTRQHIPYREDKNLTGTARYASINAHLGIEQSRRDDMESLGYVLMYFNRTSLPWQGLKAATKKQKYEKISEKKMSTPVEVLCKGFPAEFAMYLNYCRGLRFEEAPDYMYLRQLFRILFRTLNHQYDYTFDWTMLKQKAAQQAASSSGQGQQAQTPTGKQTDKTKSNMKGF
Experiment: KINOMEscan competition binding
Settings: compound 10.0 µM
Below, each entry is listed with its recorded kinase still bound, per cent of control.
Write down the numeric answer in % and omit the unit.

{"columns": ["smiles_repr", "unit_symbol", "kinase still bound, per cent of control"],
 "data": [
  ["CNC(=O)c1cc(Oc2ccc(NC(=O)Nc3ccc(Cl)c(C(F)(F)F)c3)cc2)ccn1", "%", 100],
  ["O=C(Nc1cccc(Nc2ncc(Br)c(NCCc3cnc[nH]3)n2)c1)N1CCCC1", "%", 28],
  ["NC(=O)Nc1cc(-c2cccc(F)c2)sc1C(=O)N[C@@H]1CCCNC1", "%", 0.5],
  ["COc1cc2ncnc(-n3nc(-c4ccccn4)nc3N)c2cc1OC", "%", 1.4]
]}

Need kinase still bound, per cent of control, item CN(C)C/C=C/C(=O)Nc1ccc(C(=O)Nc2cccc(Nc3nccc(-c4cccnc4)n3)c2)cc1
27

Also check C=CC(=O)Nc1cc(-n2c(=O)ccc3cnc4ccc(-c5cn[nH]c5)cc4c32)ccc1C
81

* * *

Biological target: CDK4 CCND3 (human) (UniProt P11802+P30281)
Sequence (P11802 whole entry, looked up): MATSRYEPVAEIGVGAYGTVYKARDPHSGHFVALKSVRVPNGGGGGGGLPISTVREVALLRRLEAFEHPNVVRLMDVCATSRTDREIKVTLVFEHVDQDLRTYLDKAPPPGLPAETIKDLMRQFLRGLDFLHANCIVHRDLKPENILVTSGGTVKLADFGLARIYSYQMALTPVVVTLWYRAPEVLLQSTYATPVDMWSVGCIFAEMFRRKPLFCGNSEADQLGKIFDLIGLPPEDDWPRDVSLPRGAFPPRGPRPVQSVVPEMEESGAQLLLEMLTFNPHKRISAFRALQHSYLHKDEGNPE
Sequence (P30281 whole entry, looked up): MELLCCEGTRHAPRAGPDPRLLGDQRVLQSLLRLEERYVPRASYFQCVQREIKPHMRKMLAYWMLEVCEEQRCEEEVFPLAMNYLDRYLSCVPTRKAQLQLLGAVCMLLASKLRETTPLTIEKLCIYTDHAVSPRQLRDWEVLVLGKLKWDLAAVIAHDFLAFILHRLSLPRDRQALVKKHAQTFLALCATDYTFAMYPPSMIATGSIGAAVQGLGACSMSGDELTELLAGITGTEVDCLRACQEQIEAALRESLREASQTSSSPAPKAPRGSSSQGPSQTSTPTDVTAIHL
Test: KINOMEscan competition binding
Settings: compound 10.0 µM
Below, each entry is listed with its recorded kinase still bound, per cent of control.
Write down the numeric answer in % and omit the unit.

{"columns": ["smiles_repr", "assay_system", "reported_result"],
 "data": [
  ["O=C(Nc1cccc(Nc2ncc(Br)c(NCCc3cnc[nH]3)n2)c1)N1CCCC1", "CDK4 CCND3 (human) (UniProt P11802+P30281)", 0.35],
  ["CNC(=O)c1cc(Oc2ccc(NC(=O)Nc3ccc(Cl)c(C(F)(F)F)c3)cc2)ccn1", "CDK4 CCND3 (human) (UniProt P11802+P30281)", 79],
  ["C=CC(=O)Nc1cc(-n2c(=O)ccc3cnc4ccc(-c5cn[nH]c5)cc4c32)ccc1C", "CDK4 CCND3 (human) (UniProt P11802+P30281)", 87],
  ["CCN1CCN(C(=O)Cc2ccc(Nc3ncc(F)c(Nc4ccc(C(=O)Nc5ccccc5Cl)cc4)n3)cc2)CC1", "CDK4 CCND3 (human) (UniProt P11802+P30281)", 21]
]}

Let's switch to this compound now.
Need kinase still bound, per cent of control, item COc1cc(C(=O)N2CCC(N3CCN(C)CC3)CC2)ccc1Nc1ncc2c(n1)N(C)c1ccccc1C(=O)N2C
100

* * *

Target: DSTYK (human)
Test: KINOMEscan competition binding
Details: compound 10.0 µM
Categorize each record by its kinase still bound, per cent of control using lower level (below 40%), middle level (40% to below 80%), upper level (80% or more)

# count of solved cases: 3
{"columns": ["smiles_repr", "assay_system", "assigned_class"],
 "data": [
  ["COc1cc2ncn(-c3cc(OCc4ccccc4C(F)(F)F)c(C(N)=O)s3)c2cc1OC", "DSTYK (human)", "upper level"],
  ["O=C(Nc1cccc(Nc2ncc(Br)c(NCCc3cnc[nH]3)n2)c1)N1CCCC1", "DSTYK (human)", "lower level"],
  ["N#CCNC(=O)c1ccc(-c2ccnc(Nc3ccc(N4CCOCC4)cc3)n2)cc1", "DSTYK (human)", "lower level"]
]}

Category of COCC(=O)NC/C=C/c1ccc2ncnc(Nc3ccc(Oc4ccc(C)nc4)c(C)c3)c2c1 , please.
middle level

Also check COc1cc2ncnc(-n3nc(-c4ccccn4)nc3N)c2cc1OC
lower level

Also check C[C@@H](Oc1cc(-c2cnn(C3CCNCC3)c2)cnc1N)c1c(Cl)ccc(F)c1Cl
lower level

* * *

Biological target: TAOK3 (human) (UniProt Q9H2K8)
Sequence (Q9H2K8 whole entry, looked up): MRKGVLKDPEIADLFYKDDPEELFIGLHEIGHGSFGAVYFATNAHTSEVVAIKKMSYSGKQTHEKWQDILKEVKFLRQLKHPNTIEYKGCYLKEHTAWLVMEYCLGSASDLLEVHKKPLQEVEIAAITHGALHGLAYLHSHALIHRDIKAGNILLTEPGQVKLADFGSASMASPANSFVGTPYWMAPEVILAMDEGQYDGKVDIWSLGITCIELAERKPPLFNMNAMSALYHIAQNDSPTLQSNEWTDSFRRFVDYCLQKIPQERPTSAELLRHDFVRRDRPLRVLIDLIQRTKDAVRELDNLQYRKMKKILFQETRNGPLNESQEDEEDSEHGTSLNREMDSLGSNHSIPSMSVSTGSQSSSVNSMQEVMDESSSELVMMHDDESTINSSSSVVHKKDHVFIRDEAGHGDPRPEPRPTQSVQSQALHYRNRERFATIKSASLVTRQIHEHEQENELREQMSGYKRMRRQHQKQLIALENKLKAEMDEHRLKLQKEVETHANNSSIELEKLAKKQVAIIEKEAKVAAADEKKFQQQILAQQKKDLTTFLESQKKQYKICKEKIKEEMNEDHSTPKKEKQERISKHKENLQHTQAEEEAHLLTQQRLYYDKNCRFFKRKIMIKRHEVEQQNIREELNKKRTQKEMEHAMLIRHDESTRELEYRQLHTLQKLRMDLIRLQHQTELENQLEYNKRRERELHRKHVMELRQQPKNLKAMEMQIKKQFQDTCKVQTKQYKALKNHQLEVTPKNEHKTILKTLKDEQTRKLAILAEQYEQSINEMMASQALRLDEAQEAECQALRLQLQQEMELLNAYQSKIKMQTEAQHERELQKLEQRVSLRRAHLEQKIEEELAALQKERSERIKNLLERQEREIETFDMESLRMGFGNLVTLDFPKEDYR
Test: KINOMEscan competition binding
Conditions: compound 10.0 µM
Below, each entry is listed with its recorded kinase still bound, per cent of control.

{"columns": ["smiles_repr", "assay_system", "kinase still bound, per cent of control"],
 "data": [
  ["COc1cc(C(=O)N2CCC(N3CCN(C)CC3)CC2)ccc1Nc1ncc2c(n1)N(C)c1ccccc1C(=O)N2C", "TAOK3 (human) (UniProt Q9H2K8)", "24%"]
]}

Let's switch to this molecule now.
Need kinase still bound, per cent of control, item NC(=O)Nc1cc(-c2cccc(F)c2)sc1C(=O)N[C@@H]1CCCNC1
2.9%

* * *

Biological target: MAP3K3 (human)
Assay: KINOMEscan competition binding
Details: compound 10.0 µM
measurement_kind: kinase still bound, per cent of control (%)
Write down the numeric answer in % and omit the unit.

Some solved entries appear below for comparison.
{"columns": ["smiles_repr", "reported_result"],
 "data": [
  ["COc1cc2ncn(-c3cc(OCc4ccccc4C(F)(F)F)c(C(N)=O)s3)c2cc1OC", 74],
  ["CS(=O)(=O)N1CCN(Cc2cc3nc(-c4cccc5[nH]ncc45)nc(N4CCOCC4)c3s2)CC1", 100],
  ["O=C1NC(=O)/C(=C/c2ccc3nccc(-c4ccncc4)c3c2)S1", 75],
  ["CNC(=O)c1cc(Oc2ccc(NC(=O)Nc3ccc(Cl)c(C(F)(F)F)c3)cc2)ccn1", 86],
  ["COc1cc(N2CCN(C)CC2)ccc1Nc1ncc2c(n1)N(C)c1ccccc1C(=O)N2C", 100],
  ["CCN(CC)CCCCNc1ncc2c(n1)N(C)C(=O)N(c1c(Cl)c(OC)cc(OC)c1Cl)C2", 3.8]
]}

Need kinase still bound, per cent of control, item Cc1n[nH]c2ccc(-c3cncc(OC[C@@H](N)Cc4c[nH]c5ccccc45)c3)cc12
29

Also check COc1cc2ncnc(-n3nc(-c4ccccn4)nc3N)c2cc1OC
48

Also check O=c1cc(N2CCOCC2)oc2c(-c3cccc4c3sc3ccccc34)cccc12
92

Also check COCC(=O)NC/C=C/c1ccc2ncnc(Nc3ccc(Oc4ccc(C)nc4)c(C)c3)c2c1
100

Also check COc1cc(C(=O)N2CCC(N3CCN(C)CC3)CC2)ccc1Nc1ncc2c(n1)N(C)c1ccccc1C(=O)N2C
97

* * *

Below, each entry is listed with its recorded kinase still bound, per cent of control.
Target: STK32A (human)
Assay: KINOMEscan competition binding
Conditions: compound 10.0 µM
Write down the numeric answer in % and omit the unit.

Some solved entries appear below for comparison.
{"columns": ["smiles_repr", "reported_result"],
 "data": [
  ["COc1cc2ncnc(-n3nc(-c4ccccn4)nc3N)c2cc1OC", 64],
  ["COCC(=O)NC/C=C/c1ccc2ncnc(Nc3ccc(Oc4ccc(C)nc4)c(C)c3)c2c1", 100],
  ["COc1ccc(N(C(=O)Oc2c(C)cccc2C)c2ccnc(Nc3ccc(N4CCN(C)CC4)cc3)n2)c(OC)c1", 8.2],
  ["COc1cc2ncn(-c3cc(OCc4ccccc4C(F)(F)F)c(C(N)=O)s3)c2cc1OC", 82],
  ["O=C(Nc1cccc(Nc2ncc(Br)c(NCCc3cnc[nH]3)n2)c1)N1CCCC1", 51]
]}

Let's switch to this compound now.
Need kinase still bound, per cent of control, item C[C@@H](Oc1cc(-c2cnn(C3CCNCC3)c2)cnc1N)c1c(Cl)ccc(F)c1Cl
86

* * *

Target: RPS6KA2 KD1 (human) (UniProt Q15349)
Sequence (Q15349 whole entry, looked up): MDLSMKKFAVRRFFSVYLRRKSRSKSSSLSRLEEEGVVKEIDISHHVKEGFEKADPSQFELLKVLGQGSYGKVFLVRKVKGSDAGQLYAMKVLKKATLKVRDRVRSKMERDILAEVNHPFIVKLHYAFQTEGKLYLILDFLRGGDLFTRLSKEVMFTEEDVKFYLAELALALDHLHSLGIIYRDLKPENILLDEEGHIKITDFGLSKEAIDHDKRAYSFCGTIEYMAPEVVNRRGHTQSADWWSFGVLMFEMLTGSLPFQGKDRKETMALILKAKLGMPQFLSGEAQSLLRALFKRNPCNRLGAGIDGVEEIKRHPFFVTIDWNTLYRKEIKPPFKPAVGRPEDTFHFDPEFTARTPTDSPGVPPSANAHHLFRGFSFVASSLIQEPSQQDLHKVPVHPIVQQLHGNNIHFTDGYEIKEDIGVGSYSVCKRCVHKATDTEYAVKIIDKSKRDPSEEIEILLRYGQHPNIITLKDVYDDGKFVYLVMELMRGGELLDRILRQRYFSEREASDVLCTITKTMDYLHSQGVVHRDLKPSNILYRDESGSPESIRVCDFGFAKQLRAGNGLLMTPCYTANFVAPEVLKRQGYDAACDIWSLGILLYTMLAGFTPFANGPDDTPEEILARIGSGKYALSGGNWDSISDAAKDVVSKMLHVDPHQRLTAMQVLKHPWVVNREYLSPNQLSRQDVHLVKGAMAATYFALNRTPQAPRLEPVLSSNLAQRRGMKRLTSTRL
Assay: KINOMEscan competition binding
Conditions: compound 10.0 µM
Below, each entry is listed with its recorded kinase still bound, per cent of control.
Write down the numeric answer in % and omit the unit.

{"columns": ["smiles_repr", "unit_symbol", "kinase still bound, per cent of control"],
 "data": [
  ["CCN1CCN(C(=O)Cc2ccc(Nc3ncc(F)c(Nc4ccc(C(=O)Nc5ccccc5Cl)cc4)n3)cc2)CC1", "%", 65],
  ["O=C1NC(=O)/C(=C/c2ccc3nccc(-c4ccncc4)c3c2)S1", "%", 100],
  ["COc1ccc(N(C(=O)Oc2c(C)cccc2C)c2ccnc(Nc3ccc(N4CCN(C)CC4)cc3)n2)c(OC)c1", "%", 27],
  ["COc1cc(N2CCN(C)CC2)ccc1Nc1ncc2c(n1)N(C)c1ccccc1C(=O)N2C", "%", 100],
  ["O=C(Nc1cccc(Nc2ncc(Br)c(NCCc3cnc[nH]3)n2)c1)N1CCCC1", "%", 7.6]
]}

Let's switch to this compound now.
Need kinase still bound, per cent of control, item COCC(=O)NC/C=C/c1ccc2ncnc(Nc3ccc(Oc4ccc(C)nc4)c(C)c3)c2c1
78

Value source: the kinase profiling compilation of Christmann-Franck et al. (2016)
